experimental-system: B. subtilis EngA (Bacillus subtilis)
Construct: full-length EngA (named hereafter as EngA) and its two shortened EngA variants, GD1 and GD2-KH were overexpressed in E. coli; His-tag (from pET15b; purified on Ni-IDA) (N); made in house; host or cells: E. coli C41(DE3)
assay-procedure: Nucleotide binding monitored by intrinsic tryptophan fluorescence
stated-conditions: KD, 300 mM NaCl
endpoint-name: Kd (µM)
Write the value in µM as a bare number.

Query: // fetch Kd given entry Nc1nc2c(ncn2[C@@H]2O[C@H](COP(=O)(O)OP(=O)(O)O)[C@@H](O)[C@H]2O)c(=O)[nH]1
Reply: 12.8

====

experimental-system: GD1 (shortened B. subtilis EngA variant) (Bacillus subtilis, UniProt P50743)
Construct: two shortened EngA variants that only contain GD1 or GD2-KH; His-tag (from pET15b; purified on Ni-IDA) (N); made in house; host or cells: E. coli C41(DE3)
assay-procedure: Nucleotide binding monitored by intrinsic tryptophan fluorescence
stated-conditions: GD1, 300 mM KCl
endpoint-name: Kd (µM)
Write the value in µM as a bare number.

line-notation: Nc1nc2c(ncn2[C@@H]2O[C@H](COP(=O)(O)OP(=O)(O)O)[C@@H](O)[C@H]2O)c(=O)[nH]1
reported-measurement: 4.5

API: the following record is the query input.
Query: Determine reported Kd for Nc1nc2c(ncn2[C@@H]2O[C@H](COP(=O)(O)OP(=O)(O)NP(=O)(O)O)[C@@H](O)[C@H]2O)c(=O)[nH]1 ; test system: GD1 (shortened B. subtilis EngA variant) (Bacillus subtilis, UniProt P50743).
Reply: 35.7

====

experimental-system: B. subtilis EngA (Bacillus subtilis)
Construct: full-length EngA (named hereafter as EngA) and its two shortened EngA variants, GD1 and GD2-KH were overexpressed in E. coli; His-tag (from pET15b; purified on Ni-IDA) (N); made in house; host or cells: E. coli C41(DE3)
assay-procedure: Nucleotide binding monitored by intrinsic tryptophan fluorescence
stated-conditions: 300 mM KCl, read-out: KD
endpoint-name: Kd (µM)
Write the value in µM as a bare number.

Query: Determine reported Kd for Nc1nc2c(ncn2[C@@H]2O[C@H](COP(=O)(O)OP(=O)(O)NP(=O)(O)O)[C@@H](O)[C@H]2O)c(=O)[nH]1 [GMPPNP] ; test system: B. subtilis EngA (Bacillus subtilis).
Reply: 18.8

====

experimental-system: GD1 (shortened B. subtilis EngA variant) (Bacillus subtilis, UniProt P50743)
Construct: two shortened EngA variants that only contain GD1 or GD2-KH; His-tag (from pET15b; purified on Ni-IDA) (N); made in house; host or cells: E. coli C41(DE3)
assay-procedure: Nucleotide binding monitored by intrinsic tryptophan fluorescence
stated-conditions: GD1, 300 mM NaCl
Method: Fluorescence measurements were performed essentially as described previously for the unmodified nucleotides or the N-methylanthraniloyl-GDP (MANT-GDP) analogue using a PTI QuantaMaster 4 spectrofluorimeter, [62]. […] For the intrinsic tryptophan fluorescence, inner filter effect was corrected using N-Acetyltryptophanamide (NATA) as a reference. […]
Overview of recorded pKd for various molecules
Quick note: pKd values are minus log10 of concentrations in mol/L.

line-notation: Nc1nc2c(ncn2[C@@H]2O[C@H](COP(=O)(O)OP(=O)(O)O)[C@@H](O)[C@H]2O)c(=O)[nH]1
endpoint-name: pKd
reported-measurement: 5.57

Query: Determine reported pKd for Nc1nc2c(ncn2[C@@H]2O[C@H](COP(=O)(O)OP(=O)(O)NP(=O)(O)O)[C@@H](O)[C@H]2O)c(=O)[nH]1 ; test system: GD1 (shortened B. subtilis EngA variant) (Bacillus subtilis, UniProt P50743).
Reply: 4.75

====

experimental-system: B. subtilis EngA (Bacillus subtilis, UniProt P50743)
Construct: full-length EngA (named hereafter as EngA) and its two shortened EngA variants, GD1 and GD2-KH were overexpressed in E. coli; His-tag (from pET15b; purified on Ni-IDA) (N); made in house; host or cells: E. coli C41(DE3)
assay-procedure: Nucleotide binding monitored by intrinsic tryptophan fluorescence
stated-conditions: KD, no salt (absence of K+), 2 mM MgCl2, 25°C
endpoint-name: pKd
Quick note: pKd values are minus log10 of concentrations in mol/L.

Query: // fetch pKd given entry Nc1nc2c(ncn2[C@@H]2O[C@H](COP(=O)(O)OP(=O)(O)O)[C@@H](O)[C@H]2O)c(=O)[nH]1
Reply: 5.10

====

experimental-system: GD2-KH (shortened B. subtilis EngA variant) (Bacillus subtilis)
Construct: two shortened EngA variants that only contain GD1 or GD2-KH; His-tag (from pET15b; purified on Ni-IDA) (N); made in house; host or cells: E. coli C41(DE3)
assay-procedure: Nucleotide binding monitored by intrinsic tryptophan fluorescence
stated-conditions: 300 mM NaCl
Overview of recorded pKd for various molecules
Quick note: pKd values are minus log10 of concentrations in mol/L.

line-notation: Nc1nc2c(ncn2[C@@H]2O[C@H](COP(=O)(O)OP(=O)(O)NP(=O)(O)O)[C@@H](O)[C@H]2O)c(=O)[nH]1
experimental-system: GD2-KH (shortened B. subtilis EngA variant) (Bacillus subtilis)
pKd: 4.82

API: the following record is the query input.
Query: // fetch pKd given entry Nc1nc2c(ncn2[C@@H]2O[C@H](COP(=O)(O)OP(=O)(O)O)[C@@H](O)[C@H]2O)c(=O)[nH]1
Reply: 5.80

====

experimental-system: B. subtilis EngA (Bacillus subtilis)
Construct: full-length EngA (named hereafter as EngA) and its two shortened EngA variants, GD1 and GD2-KH were overexpressed in E. coli; His-tag (from pET15b; purified on Ni-IDA) (N); made in house; host or cells: E. coli C41(DE3)
Sequence (P50743 1-436): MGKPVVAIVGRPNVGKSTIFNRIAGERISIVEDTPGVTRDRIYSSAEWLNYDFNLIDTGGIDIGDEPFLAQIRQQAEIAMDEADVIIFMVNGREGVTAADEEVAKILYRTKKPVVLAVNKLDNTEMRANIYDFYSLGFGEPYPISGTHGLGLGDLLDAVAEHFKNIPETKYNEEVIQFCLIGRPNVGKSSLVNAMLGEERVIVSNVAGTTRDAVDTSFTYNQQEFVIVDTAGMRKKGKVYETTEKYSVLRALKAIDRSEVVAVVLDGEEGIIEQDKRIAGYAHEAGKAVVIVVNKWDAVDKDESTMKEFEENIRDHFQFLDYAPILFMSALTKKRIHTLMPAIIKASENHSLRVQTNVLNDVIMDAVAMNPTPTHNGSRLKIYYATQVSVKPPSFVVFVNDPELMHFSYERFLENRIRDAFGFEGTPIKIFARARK
assay-procedure: Fluorescence resonance energy transfer between tryptophan residues and MANT moiety
Assay type: binding
stated-conditions: 300 mM KCl, FRET Trp to MANT
endpoint-name: pKd
Quick note: pKd values are minus log10 of concentrations in mol/L.

Query: Determine reported pKd for CNc1ccccc1C(=O)O[C@H]1[C@@H](O)[C@H](n2cnc3c(=O)[nH]c(N)nc32)O[C@@H]1COP(=O)(O)OP(=O)(O)O ; test system: B. subtilis EngA (Bacillus subtilis).
Reply: 5.54

====

experimental-system: B. subtilis EngA (Bacillus subtilis)
Construct: full-length EngA (named hereafter as EngA) and its two shortened EngA variants, GD1 and GD2-KH were overexpressed in E. coli; His-tag (from pET15b; purified on Ni-IDA) (N); made in house; host or cells: E. coli C41(DE3)
assay-procedure: Nucleotide binding monitored by intrinsic tryptophan fluorescence
stated-conditions: no salt (absence of K+), 2 mM MgCl2, 25°C, read-out: KD
endpoint-name: pKd
Quick note: pKd values are minus log10 of concentrations in mol/L.

Query: // fetch pKd given entry Nc1nc2c(ncn2[C@@H]2O[C@H](COP(=O)(O)OP(=O)(O)NP(=O)(O)O)[C@@H](O)[C@H]2O)c(=O)[nH]1 [GMPPNP]
Reply: 4.59

====

experimental-system: B. subtilis EngA (Bacillus subtilis)
Construct: full-length EngA (named hereafter as EngA) and its two shortened EngA variants, GD1 and GD2-KH were overexpressed in E. coli; His-tag (from pET15b; purified on Ni-IDA) (N); made in house; host or cells: E. coli C41(DE3)
assay-procedure: Nucleotide binding monitored by intrinsic tryptophan fluorescence
stated-conditions: 300 mM NaCl, read-out: KD
endpoint-name: pKd
Quick note: pKd values are minus log10 of concentrations in mol/L.

Query: // fetch pKd given entry Nc1nc2c(ncn2[C@@H]2O[C@H](COP(=O)(O)OP(=O)(O)NP(=O)(O)O)[C@@H](O)[C@H]2O)c(=O)[nH]1 [GMPPNP]
Reply: 4.78
